system: HEK293; test: Cytotoxicity against HEK293 cells assessed as cell viability at 10 ug/ml; assay type: cell-based; details: human
What Cell viability was measured for each of the following?
Give the value, in units of %, as a plain number.

Which Cell viability value belongs to `Brc1ccc2cc(-c3cc4cc(Br)c(Br)cc4[nH]3)[nH]c2c1` ? 71

Which Cell viability value belongs to `COc1ccc2[nH]c(-c3cc4ccc(Br)cc4[nH]3)cc2c1` ? 88

Which Cell viability value belongs to `COCn1c(-c2cc3ccc(Br)cc3[nH]2)cc2cc(Br)ccc21` ? 102

Which Cell viability value belongs to `Brc1ccc2cc(CCc3cc4ccc(Br)cc4[nH]3)[nH]c2c1` ? 92

Which Cell viability value belongs to `Brc1ccc2cc(/C=C/c3cc4ccccc4[nH]3)[nH]c2c1` ? 114

Which Cell viability value belongs to `Brc1ccc2cc(-c3cc4ccc(Br)cc4[nH]3)[nH]c2c1` ? 106

###

system: Staphylococcus aureus; assay: Inhibition of methicillin-resistant Staphylococcus aureus pyruvate kinase at 10 uM
metric: inhibition (%)
Give the value, in units of %, as a plain number.

Which inhibition value belongs to `Brc1ccc2cc(/C=C/c3cc4ccccc4[nH]3)[nH]c2c1` ? 93.4

Which inhibition value belongs to `Brc1ccc2cc(-c3cc4ccc(Br)cc4[nH]3)[nH]c2c1` ? 84.9

Which inhibition value belongs to `Brc1ccc2c(c1)cc(-c1cc3ccc(Br)cc3[nH]1)n2CCN1CCOCC1` ? 101

Which inhibition value belongs to `Brc1ccc2cc(-c3cc4ccccc4o3)[nH]c2c1` ? 95.9

Which inhibition value belongs to `Brc1ccc2[nH]c(-c3cc4cc(Br)ccc4[nH]3)cc2c1` ? 71

Which inhibition value belongs to `Brc1ccc2[nH]c(C#Cc3cc4ccc(Br)cc4[nH]3)cc2c1` ? 86.3

Which inhibition value belongs to `Brc1cc2cc(-c3cc4ccccc4[nH]3)[nH]c2cc1Br` ? 39

Which inhibition value belongs to `Brc1ccc2cc(-c3cc4cc(Br)c(Br)cc4[nH]3)[nH]c2c1` ? 94.1

Which inhibition value belongs to `Cn1c(C#Cc2cc3ccc(Br)cc3n2C)cc2ccc(Br)cc21` ? 27

Which inhibition value belongs to `Brc1ccc2[nH]c(-c3cc4ccccc4o3)cc2c1` ? 45

Which inhibition value belongs to `Brc1ccc2cc(-c3nc4ccccc4s3)[nH]c2c1` ? 89.8

Which inhibition value belongs to `COc1cc(-c2cc3ccccc3[nH]2)ccc1-c1cc2ccc(Br)cc2[nH]1` ? 62.2

Which inhibition value belongs to `CN1CCN(CCn2c(-c3cc4ccc(Br)cc4[nH]3)cc3cc(Br)ccc32)CC1` ? 100

Which inhibition value belongs to `OCCn1c(-c2cc3ccc(Br)cc3[nH]2)cc2cc(Br)ccc21` ? 101

Which inhibition value belongs to `Cn1c(-c2cc3cc(Br)ccc3[nH]2)cc2ccc(Br)cc21` ? 25

Which inhibition value belongs to `Brc1ccc2cc(CCc3cc4ccc(Br)cc4[nH]3)[nH]c2c1` ? 93.4

Which inhibition value belongs to `Cn1c(-c2cc3ccc(Br)cc3[nH]2)cc2cc(Br)ccc21` ? 99

Which inhibition value belongs to `Brc1cc2cc(-c3cc4cc(Br)c(Br)cc4[nH]3)[nH]c2cc1Br` ? 97.6

Which inhibition value belongs to `Brc1ccc2[nH]c(-c3cc4ccccc4[nH]3)cc2c1` ? 36

Which inhibition value belongs to `Brc1ccc2cc(-c3cccc(-c4cc5ccccc5[nH]4)c3)[nH]c2c1` ? 36

Which inhibition value belongs to `Brc1ccc2[nH]c(-c3cc4ccc(Br)cc4[nH]3)cc2c1` ? 97.8

Reference source for all entries: ChEMBL document CHEMBL3112446
